system_name: DmTRPA1-D (Drosophila melanogaster, UniProt H0USS9)
Construct: full CDS of splice isoform D (cDNA gift from Marco Gallio lab) in pOX(+), cRNA-injected Xenopus laevis oocytes
Sequence (H0USS9 1-1231): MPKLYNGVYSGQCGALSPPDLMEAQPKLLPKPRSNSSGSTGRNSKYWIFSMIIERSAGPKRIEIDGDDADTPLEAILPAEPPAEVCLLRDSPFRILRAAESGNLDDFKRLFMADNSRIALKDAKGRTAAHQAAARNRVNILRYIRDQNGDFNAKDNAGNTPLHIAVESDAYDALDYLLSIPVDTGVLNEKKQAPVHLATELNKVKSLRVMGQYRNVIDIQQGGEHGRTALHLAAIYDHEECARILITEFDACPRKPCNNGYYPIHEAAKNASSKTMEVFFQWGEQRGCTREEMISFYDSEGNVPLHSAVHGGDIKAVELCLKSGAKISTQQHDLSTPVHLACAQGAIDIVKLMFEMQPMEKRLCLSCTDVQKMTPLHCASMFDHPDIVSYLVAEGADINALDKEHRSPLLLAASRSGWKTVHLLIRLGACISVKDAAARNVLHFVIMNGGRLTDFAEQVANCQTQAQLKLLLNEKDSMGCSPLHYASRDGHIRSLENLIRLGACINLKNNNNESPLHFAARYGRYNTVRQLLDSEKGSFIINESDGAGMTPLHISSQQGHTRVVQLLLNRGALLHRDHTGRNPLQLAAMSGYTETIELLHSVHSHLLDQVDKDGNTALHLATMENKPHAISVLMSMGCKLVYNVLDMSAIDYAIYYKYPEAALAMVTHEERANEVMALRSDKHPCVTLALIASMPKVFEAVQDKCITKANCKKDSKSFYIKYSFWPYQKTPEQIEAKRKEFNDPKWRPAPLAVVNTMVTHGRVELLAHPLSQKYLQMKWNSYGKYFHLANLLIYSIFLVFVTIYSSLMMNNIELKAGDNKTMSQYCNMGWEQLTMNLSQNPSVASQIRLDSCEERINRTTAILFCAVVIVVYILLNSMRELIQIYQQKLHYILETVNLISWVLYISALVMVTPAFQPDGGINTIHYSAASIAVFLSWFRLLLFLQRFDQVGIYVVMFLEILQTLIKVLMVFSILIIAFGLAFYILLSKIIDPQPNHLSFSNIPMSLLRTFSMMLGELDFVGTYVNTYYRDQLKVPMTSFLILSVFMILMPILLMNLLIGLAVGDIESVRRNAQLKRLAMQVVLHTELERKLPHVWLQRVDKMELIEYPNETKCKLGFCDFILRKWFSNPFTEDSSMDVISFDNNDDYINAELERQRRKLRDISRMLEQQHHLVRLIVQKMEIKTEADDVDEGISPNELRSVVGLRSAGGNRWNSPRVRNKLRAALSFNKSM
method: two-electrode voltage clamp, Xenopus oocytes, heat-normalized AITC-evoked current
condition_details: read-out: TRPA1-DL / DmTRPA1-D
observed_property: EC50 (µM)
Number in µM, nothing else.

For record C=CCN=C=S [allyl isothiocyanate] the listed EC50 is 341

---

system_name: DmTRPA1-C (Drosophila melanogaster, UniProt G8IQ59)
Construct: full CDS of splice isoform C (cDNA from third-instar larva whole body) in pOX(+), cRNA-injected Xenopus laevis oocytes
Sequence (G8IQ59 1-1232): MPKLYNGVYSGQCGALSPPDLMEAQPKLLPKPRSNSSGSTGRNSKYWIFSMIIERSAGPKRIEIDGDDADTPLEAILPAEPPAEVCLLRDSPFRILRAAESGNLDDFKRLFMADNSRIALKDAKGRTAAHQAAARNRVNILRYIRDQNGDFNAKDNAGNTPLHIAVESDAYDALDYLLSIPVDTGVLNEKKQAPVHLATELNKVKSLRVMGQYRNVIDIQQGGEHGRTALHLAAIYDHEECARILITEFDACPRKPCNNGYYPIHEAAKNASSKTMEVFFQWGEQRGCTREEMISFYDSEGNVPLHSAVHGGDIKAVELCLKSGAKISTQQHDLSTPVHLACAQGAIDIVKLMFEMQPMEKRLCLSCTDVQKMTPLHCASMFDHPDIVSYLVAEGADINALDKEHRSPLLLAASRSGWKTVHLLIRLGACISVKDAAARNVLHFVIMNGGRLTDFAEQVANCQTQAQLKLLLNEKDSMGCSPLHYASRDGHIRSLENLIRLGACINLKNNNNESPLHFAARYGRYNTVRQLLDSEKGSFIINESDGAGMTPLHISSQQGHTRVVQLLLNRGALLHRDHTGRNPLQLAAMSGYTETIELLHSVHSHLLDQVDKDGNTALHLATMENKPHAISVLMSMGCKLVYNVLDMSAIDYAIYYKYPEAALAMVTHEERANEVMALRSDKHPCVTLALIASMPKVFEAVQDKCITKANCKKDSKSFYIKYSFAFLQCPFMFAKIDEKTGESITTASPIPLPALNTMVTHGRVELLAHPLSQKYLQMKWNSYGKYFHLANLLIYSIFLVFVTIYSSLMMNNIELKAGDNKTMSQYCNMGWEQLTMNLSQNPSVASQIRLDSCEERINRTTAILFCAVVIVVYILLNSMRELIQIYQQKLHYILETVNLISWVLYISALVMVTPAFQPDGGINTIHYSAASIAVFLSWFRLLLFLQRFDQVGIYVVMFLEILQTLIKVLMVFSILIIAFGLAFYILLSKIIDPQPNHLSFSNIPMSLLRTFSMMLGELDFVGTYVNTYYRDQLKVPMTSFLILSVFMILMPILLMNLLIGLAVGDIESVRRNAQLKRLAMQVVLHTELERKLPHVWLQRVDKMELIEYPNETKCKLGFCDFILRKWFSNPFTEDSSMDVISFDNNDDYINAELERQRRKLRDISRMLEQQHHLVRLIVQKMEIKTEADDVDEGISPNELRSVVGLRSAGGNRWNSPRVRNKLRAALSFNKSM
method: two-electrode voltage clamp, Xenopus oocytes, heat-normalized AITC-evoked current
condition_details: read-out: TRPA1-CL / DmTRPA1-C
observed_property: pEC50
# reply with the number alone; pEC50 is -log10 of concentration in mol/L

For record C=CCN=C=S [allyl isothiocyanate] the listed pEC50 is 5.07
